Target Or Test System: purified human, His-tagged PRC2 complex (Homo sapiens, UniProt O75530+Q15910)
Sequence (Q15910 whole entry): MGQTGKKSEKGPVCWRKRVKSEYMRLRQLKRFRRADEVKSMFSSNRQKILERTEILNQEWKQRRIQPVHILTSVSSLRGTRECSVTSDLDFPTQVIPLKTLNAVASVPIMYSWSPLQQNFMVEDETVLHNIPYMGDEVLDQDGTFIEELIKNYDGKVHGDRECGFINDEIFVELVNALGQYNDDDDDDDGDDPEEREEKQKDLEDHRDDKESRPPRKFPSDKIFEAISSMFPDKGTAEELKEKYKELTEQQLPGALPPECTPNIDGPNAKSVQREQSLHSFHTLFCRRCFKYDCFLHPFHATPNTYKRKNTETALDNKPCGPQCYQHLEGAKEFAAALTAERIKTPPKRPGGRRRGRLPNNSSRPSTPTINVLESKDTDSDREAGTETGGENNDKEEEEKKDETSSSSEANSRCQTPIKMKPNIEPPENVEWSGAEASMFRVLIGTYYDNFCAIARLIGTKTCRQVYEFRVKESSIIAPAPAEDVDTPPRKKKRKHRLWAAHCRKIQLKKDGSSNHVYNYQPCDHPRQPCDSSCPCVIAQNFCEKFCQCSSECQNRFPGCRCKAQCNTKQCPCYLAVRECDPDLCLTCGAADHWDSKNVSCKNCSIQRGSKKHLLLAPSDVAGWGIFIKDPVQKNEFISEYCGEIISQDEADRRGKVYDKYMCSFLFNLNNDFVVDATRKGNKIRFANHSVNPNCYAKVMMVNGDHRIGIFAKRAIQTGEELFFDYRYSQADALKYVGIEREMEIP
Sequence (O75530 whole entry): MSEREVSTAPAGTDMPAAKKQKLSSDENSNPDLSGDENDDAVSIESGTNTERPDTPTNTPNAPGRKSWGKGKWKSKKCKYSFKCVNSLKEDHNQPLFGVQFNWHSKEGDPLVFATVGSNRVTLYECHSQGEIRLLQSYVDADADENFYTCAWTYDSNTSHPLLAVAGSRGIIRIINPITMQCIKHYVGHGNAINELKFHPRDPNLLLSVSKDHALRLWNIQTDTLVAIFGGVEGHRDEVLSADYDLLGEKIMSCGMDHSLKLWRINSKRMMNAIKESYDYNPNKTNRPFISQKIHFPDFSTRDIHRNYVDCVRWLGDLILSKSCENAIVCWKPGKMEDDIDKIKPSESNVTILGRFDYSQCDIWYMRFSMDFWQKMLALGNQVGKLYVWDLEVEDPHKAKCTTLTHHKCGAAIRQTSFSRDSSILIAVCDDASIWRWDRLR
Sequence (Q15022 whole entry partner): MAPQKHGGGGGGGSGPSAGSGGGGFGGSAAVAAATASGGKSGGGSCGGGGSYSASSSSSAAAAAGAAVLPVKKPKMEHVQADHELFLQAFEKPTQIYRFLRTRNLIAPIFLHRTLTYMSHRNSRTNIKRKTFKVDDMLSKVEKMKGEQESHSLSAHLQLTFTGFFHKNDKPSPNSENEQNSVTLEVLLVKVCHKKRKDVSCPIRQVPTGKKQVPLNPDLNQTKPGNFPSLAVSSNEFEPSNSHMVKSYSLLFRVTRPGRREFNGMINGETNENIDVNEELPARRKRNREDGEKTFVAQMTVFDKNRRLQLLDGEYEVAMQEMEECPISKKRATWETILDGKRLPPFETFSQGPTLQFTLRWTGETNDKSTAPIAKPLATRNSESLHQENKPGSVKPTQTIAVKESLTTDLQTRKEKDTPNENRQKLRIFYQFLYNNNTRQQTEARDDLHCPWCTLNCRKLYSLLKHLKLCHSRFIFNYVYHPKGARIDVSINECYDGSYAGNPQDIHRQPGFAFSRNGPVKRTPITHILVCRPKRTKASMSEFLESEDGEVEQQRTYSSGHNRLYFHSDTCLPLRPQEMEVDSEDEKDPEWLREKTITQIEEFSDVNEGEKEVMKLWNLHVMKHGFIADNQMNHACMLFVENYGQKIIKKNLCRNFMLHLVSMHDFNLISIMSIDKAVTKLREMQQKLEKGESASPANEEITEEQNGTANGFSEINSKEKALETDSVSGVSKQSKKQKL
Sequence (Q6ZN18 whole entry partner): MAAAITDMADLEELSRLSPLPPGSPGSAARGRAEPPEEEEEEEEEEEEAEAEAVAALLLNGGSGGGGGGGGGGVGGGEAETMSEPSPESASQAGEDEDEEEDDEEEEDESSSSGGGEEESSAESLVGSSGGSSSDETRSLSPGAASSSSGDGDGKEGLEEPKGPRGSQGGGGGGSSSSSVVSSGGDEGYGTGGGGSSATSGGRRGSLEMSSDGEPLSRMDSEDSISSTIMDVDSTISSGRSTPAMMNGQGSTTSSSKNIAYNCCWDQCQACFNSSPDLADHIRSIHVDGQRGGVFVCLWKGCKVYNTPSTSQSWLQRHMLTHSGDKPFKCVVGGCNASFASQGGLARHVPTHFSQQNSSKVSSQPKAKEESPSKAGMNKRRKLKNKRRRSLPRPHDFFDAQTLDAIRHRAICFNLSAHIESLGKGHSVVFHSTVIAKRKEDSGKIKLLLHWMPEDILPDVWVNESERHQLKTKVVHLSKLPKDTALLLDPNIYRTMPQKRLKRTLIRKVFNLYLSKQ
Sequence (Q09028 whole entry partner): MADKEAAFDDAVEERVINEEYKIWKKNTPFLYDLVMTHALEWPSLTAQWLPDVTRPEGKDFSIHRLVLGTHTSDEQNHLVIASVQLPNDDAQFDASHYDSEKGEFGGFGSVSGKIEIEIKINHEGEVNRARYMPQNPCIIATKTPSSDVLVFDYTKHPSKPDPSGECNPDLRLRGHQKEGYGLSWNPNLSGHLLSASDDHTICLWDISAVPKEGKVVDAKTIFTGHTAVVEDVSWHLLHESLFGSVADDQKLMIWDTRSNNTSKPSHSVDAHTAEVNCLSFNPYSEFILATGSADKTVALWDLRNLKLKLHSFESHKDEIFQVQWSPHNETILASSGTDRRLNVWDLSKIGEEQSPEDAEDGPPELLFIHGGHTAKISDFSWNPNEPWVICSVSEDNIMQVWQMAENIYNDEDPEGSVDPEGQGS
Assay Overview: Hot Spot HMT assay: inhibition of PRC2 enzymatic activity (transfer of tritiated methyl from SAM to core histone, filter binding)
Assay type: biochemical
Particulars: Inhibition of PRC2-mediated enzymatic activity; 10 nM PRC2 complex, 0.05 mg/ml core histone H3, 1 uM 3H-SAM, 1 hr at 30°C
Value Kind: IC50

# IC50 of N#Cc1cn2c(NCc3c(F)ccc4c3CCO4)ncc(-c3cnn(C4COC4)c3)c2n1 = 100 to 500 nM

Just so you know, measured IC50 for COCCOc1ccc(-c2cnc(NCc3c(F)ccc4c3CCO4)n3cc(C#N)nc23)c(C)c1 came out at 100 to 500 nM

Note to self: IC50 recorded for CN(C)Cc1ncc(-c2cnc(NCc3c(F)ccc4c3CCO4)n3cc(C#N)nc23)cc1F was < 100 nM

Per the records, this compound ( N#Cc1cn2c(NCc3c(F)ccc4c3CCO4)ncc(-c3cncc(F)c3)c2n1 ) has IC50 equal to < 100 nM

The reported IC50 of the compound Cc1c(-c2cnc(NCc3c(F)ccc4c3CCO4)n3cc(C#N)nc23)cnn1C(C)C was 100 to 500 nM

Others:
Looking up [2H]C1Oc2ccc(F)c(C([2H])([2H])Nc3ncc(-c4ccc(CN(C)C)cc4C)c4nc(C#N)cn34)c2C1[2H] (stereo not shown) , I found its IC50 recorded as < 100 nM

Notebook: Cc1cc(S(=O)(=O)N(C)C)ccc1-c1cnc(NCc2c(F)ccc3c2CCO3)n2cc(C#N)nc12 , IC50 read as < 100 nM
